The origin of these recorded values is PubChem BioAssay (NCI).

Experiment: NCI Yeast Anticancer Drug Screen. Data for the mlh1 rad18 strain (AID 175)
Settings: S. cerevisiae mlh1 rad18 strain growth inhibition; at 50.0 µM
The panel holds about 79,000 compounds, 15% with a hit somewhere; the sample as a whole holds those more often. Calls of active or inactive are those of the source. No stated cut-off is given here; in the data, active means growth inhibition above about 70%; inactive means the rest.
Pick one and only one: Y for active, N for inactive

Examples from the recorded data:
compound | group-label
CCOc1ccc2c(c1)[n+]([O-])c(-c1ccccc1)c(N)[n+]2[O-] | Y
CC(C)OP(=O)(OC(C)C)/C(=N/Nc1ccc([N+](=O)[O-])cc1)NNC(=O)c1ccccc1 | Y
CCCCCCCCCCNC(=O)C[n+]1cccc(C(=O)NCc2ccccc2)c1 | Y
O=P(O)(CN1CCN(CP(=O)(O)c2ccccc2)CCN(CP(=O)(O)c2ccccc2)CC1)c1ccccc1 | Y

// switching to the query compound
Prompt: Tell me the recorded outcome of this test for `CCCCC(CCCC)=NNC(=S)SC` .
Completion: N
